Test system: KM12
ASSAY OVERVIEW: NCI tumour cell line growth inhibition, 48 h
Activity calls are given as the source filed them. No stated cut-off is given here; in the data, active = GI50 up to about 1.1 µM and inactive = higher.
Recorded GI50, one value per entry.

{"MOLECULE": "CCOc1ccccc1/N=N/c1c(-c2ccccc2)nn(C(=O)CC(=O)Nc2cccc(Cl)c2)c1-c1ccccc1", "GI50": "31.8 µM (inactive)"}
{"MOLECULE": "COc1cc(C2c3cc4c(c(O)c3C(=O)C3CCC(=O)N32)OCO4)cc(OC)c1OC (configuration not stated)", "GI50": "51.9 µM (inactive)"}
{"MOLECULE": "COC(=O)C1(C(=O)OC)Cc2ccc(OC)cc2C2=C1C(=O)c1ccccc1C2=O", "GI50": "6.85 µM (inactive)"}
{"MOLECULE": "CN(C)CC1CCCc2ccccc2C1=O (configuration not stated)", "GI50": "1.98 µM (inactive)"}
{"MOLECULE": "N#Cc1c(-c2ccccc2)c(C#N)c(=S)n(C2OC(CO)C(O)C(O)C2O)c1O (configuration not stated)", "GI50": "> 100 µM (inactive)"}
{"MOLECULE": "Cc1ccc([S+]([O-])/C=C(\\NC(=O)OCc2ccccc2)C(F)(F)F)cc1 (configuration not stated)", "GI50": "32.9 µM (inactive)"}

Q) So what GI50 did O=C1CC(O)c2c(Cl)sc(Cl)c21 (configuration not stated) get with KM12?
A) 3.9 µM (inactive)

Q) // query: `CC(C)OC(=O)NNc1cccc(Cl)c1`
A) > 100 µM (inactive)

Q) // query: CCOC(=O)CCC(NC(=O)Cc1ccc(Oc2nc3ccccc3nc2-c2cccs2)cc1)C(=O)OCC (configuration not stated)
A) > 100 µM (inactive)

Q) // query: `Cc1c(C2=C(Br)C(=O)N(C)C2=O)c(=O)n(C)c(=O)n1C`
A) > 100 µM (inactive)

* * *

Tested on: SK-MEL-28
ASSAY OVERVIEW: NCI tumour cell line growth inhibition, 48 h
Activity calls are given as the source filed them. Rule as the data show it: active = GI50 up to about 1.1 µM and inactive = higher.
// allowed return values: active, inactive

Previously resolved entries follow.
{"MOLECULE": "COc1ccc(Nc2nc(N)c(C(=O)c3ccc(Cl)cc3)s2)cc1", "TESTED TARGET": "SK-MEL-28", "GROUP": "active"}
{"MOLECULE": "Cn1c2c3ccccc3nc-2c(O)c2ccccc21 [HYDROXYCRYPTOLEPINE]", "TESTED TARGET": "SK-MEL-28", "GROUP": "inactive"}
{"MOLECULE": "CC#CC(O)(C(=O)OC1CC2CCC(C1)N2C)C1CCCC1 (stereo not given)", "TESTED TARGET": "SK-MEL-28", "GROUP": "inactive"}
{"MOLECULE": "C/C(=N/N(C=O)C[n+]1ccccc1)C(CN(CC(C)C)CC(C)C)C(=O)Nc1ccc(C)cc1C (stereo not given)", "TESTED TARGET": "SK-MEL-28", "GROUP": "inactive"}
{"MOLECULE": "CCNC(=O)O/N=C1\\CCC2[C@@H]3CC=C4C[C@@H](OC(=O)NCC)CC[C@]4(C)C3CC[C@]12C (stereo not given in full)", "TESTED TARGET": "SK-MEL-28", "GROUP": "inactive"}

Q) // param item: C[S+]([O-])c1cc(=O)c2ccccc2s1 (stereo not given) ; yields the recorded call
A) inactive

Q) // query: `CC1=[N+]([O-])c2ccccc2C(=O)C1=O`
A) inactive

Q) // query: `c1ccc(C(c2ccccc2)c2ccncc2)cc1`
A) inactive

Q) // query: `N=C(N)NCCCS(=O)(=O)Nc1ccc(Nc2c3ccccc3nc3cc([N+](=O)[O-])ccc23)cc1`
A) inactive

Q) // query: `Brc1ccc2nc(-c3cccs3)nc(N3CCN(c4ccccc4)CC3)c2c1`
A) inactive

* * *

System: BT-549
ASSAY OVERVIEW: NCI tumour cell line growth inhibition, 48 h
Active and inactive are the calls of the source. Cut-off read from the data, not from the text of the source: active = GI50 up to about 1.1 µM and inactive = higher.
// allowed return values: TRUE (active), FALSE (inactive)

Previously resolved entries follow.
{"MOLECULE": "O=C(/C=C\\c1ccc(-c2ccccc2)cc1)c1cccs1", "GROUP": "FALSE"}
{"MOLECULE": "O=C1c2cccc3cccc(c23)C(=O)N1CCCNCCCNCCCCNCCCNCCCN1C(=O)c2cccc3cccc(c23)C1=O", "GROUP": "FALSE"}

Q) // param item: `COc1cc(-c2cc(=O)c3c(OC)c(OC)c(OC)cc3o2)c(OC)c(OC)c1OC` ; yields the recorded call
A) FALSE

Q) // query: `CNc1nnc(CNc2ccc(-c3nnc(NC)n3N)cc2)n1N`
A) FALSE

Q) // query: CC[N+]1(C)CCC(O)(c2ccc(Cl)c(Cl)c2)C(C(=O)c2ccc(Cl)c(Cl)c2)C1 (configuration not stated)
A) FALSE

* * *

Recorded GI50, one value per entry.
Test system: SK-MEL-5
ASSAY OVERVIEW: NCI tumour cell line growth inhibition, 48 h
Calls of active or inactive are those of the source. Rule as the data show it: active = GI50 up to about 1.1 µM and inactive = higher.

{"MOLECULE": "Oc1c(C(O)c2ccccn2)ccc2ccccc12 (stereo unspecified)", "QUANTITY": "GI50", "TEST VALUE": "22.7 µM (inactive)"}
{"MOLECULE": "Nc1nc(Cc2ccccc2)nc(Cc2ccccc2)c1-c1ccccc1", "QUANTITY": "GI50", "TEST VALUE": "15.5 µM (inactive)"}
{"MOLECULE": "C=C1CC(c2ccc(OCCCN3C(=O)c4ccccc4C3=O)c(OC)c2)OC1=O (stereo unspecified)", "QUANTITY": "GI50", "TEST VALUE": "11.1 µM (inactive)"}

Q) Suppose we examine the molecule `C[n+]1c(-c2ccc(/C=N\N3CCN(/N=C/c4ccc(-c5cn6ccccc6[n+]5C)cc4)CC3)cc2)cn2ccccc21` ; what GI50 value has been reported?
A) 17.8 µM (inactive)

Q) // query: `Cc1ccc2c(/C=C/c3ccc(N(C)C)cc3)ccnc2c1C`
A) 18.2 µM (inactive)

Q) // query: `COc1cc(-c2cc(=O)c3c(OC)c(OC)c(OC)cc3o2)c(OC)c(OC)c1OC`
A) 53.7 µM (inactive)

Q) // query: `CCOc1ccccc1/N=N/c1c(-c2ccccc2)nn(C(=O)CC(=O)Nc2cccc(Cl)c2)c1-c1ccccc1`
A) 52.2 µM (inactive)

Q) // query: CSc1cnc2ccccc2c1SC1CN(Cc2ccccc2)c2ccccc2C1=O (stereo unspecified)
A) > 100 µM (inactive)

Q) // query: `CN(C)c1cccc(F)c1C(=O)NC(=O)Nc1ccc(Cl)cc1`
A) 3.33 µM (inactive)

Q) // query: CCCCCCCCCC(=O)NC(CCC(=O)N(CCNC(=O)c1nc(-c2ccccc2)oc1-c1ccccc1)Cc1ccccc1)C(=O)O (stereo unspecified)
A) 16.2 µM (inactive)

Q) // query: `COc1cc(/C=C/c2ccncc2)cc(OC)c1OC`
A) 63.2 µM (inactive)

* * *

Recorded GI50, one value per entry.
System: SW-620
ASSAY OVERVIEW: NCI tumour cell line growth inhibition, 48 h
The source made the active and inactive calls. No stated cut-off is given here; in the data, active = GI50 up to about 1.1 µM and inactive = higher.

Completed entries (count: 3):
{"MOLECULE": "COC1CCCCN1C(=O)c1ccccc1 (stereo not given)", "TEST VALUE": "> 25.3 µM (inactive)"}
{"MOLECULE": "O=c1c(C(c2ccc3c(c2)Cc2ccccc2-3)c2c(O)oc3ccccc3c2=O)c(O)oc2ccccc12", "TEST VALUE": "29.8 µM (inactive)"}
{"MOLECULE": "C=Cc1cc2c(cc1O)CC[C@@H]1[C@@H]2CC[C@]2(C)[C@@H](O)CC[C@@H]12", "TEST VALUE": "4.32 µM (inactive)"}

Q) Suppose we examine the molecule `O=P12N(CCN1c1ccccc1)CCN2c1ccccc1` ; what GI50 value has been reported?
A) > 100 µM (inactive)

Q) // query: `N=C(N)NCCCS(=O)(=O)Nc1ccc(Nc2c3ccccc3nc3cc([N+](=O)[O-])ccc23)cc1`
A) 14.9 µM (inactive)

* * *

Test system: XF498
ASSAY OVERVIEW: NCI tumour cell line growth inhibition, 48 h
Activity calls are given as the source filed them. Cut-off read from the data, not from the text of the source: active = GI50 up to about 1.1 µM and inactive = higher.
// allowed return values: YES for active, NO for inactive

{"MOLECULE": "C=CCN1/C(=C2\\SC(=S)N(c3ccc(C)cc3)C2=O)Sc2c1ncn(C)c2=O", "TESTED TARGET": "XF498", "GROUP": "NO"}
{"MOLECULE": "O=C1C(c2ccccc2)=C(c2ccccc2)C(c2ccc(Sc3ccc(C4=C(c5ccccc5)C(=O)C(c5ccccc5)=C4c4ccccc4)cc3)cc2)=C1c1ccccc1", "TESTED TARGET": "XF498", "GROUP": "NO"}
{"MOLECULE": "CN(C)C(=S)/N=c1\\ssc(=S)n1Cc1ccccn1", "TESTED TARGET": "XF498", "GROUP": "NO"}
{"MOLECULE": "Cc1c[nH]c2c1C13CC1CN(C(=O)c1cc4cc(NC(=O)c5cc6ccccc6o5)ccc4[nH]1)C3=CC2=O (stereo unspecified)", "TESTED TARGET": "XF498", "GROUP": "YES"}
{"MOLECULE": "COc1ccc(C(=O)N/N=C/c2c(C)n(C)n(-c3ccccc3)c2=O)cc1", "TESTED TARGET": "XF498", "GROUP": "NO"}
{"MOLECULE": "C/C=C1\\NC(=O)[C@H]2CSSCCC=C[C@H](CC(=O)N[C@H](C(C)C)C(=O)N2)OC(=O)[C@H](C(C)C)NC1=O", "TESTED TARGET": "XF498", "GROUP": "YES"}
{"MOLECULE": "C#CC1(O)CCC2C3CCc4cc(Oc5nc(F)nc(-c6c7ccccc7c7sc8ccccc8n67)n5)ccc4C3CC[C@@]21C (stereo partly specified)", "TESTED TARGET": "XF498", "GROUP": "NO"}
{"MOLECULE": "CCOc1ccccc1/N=N/c1c(-c2ccccc2)nn(C(=O)CC(=O)Nc2cccc(Cl)c2)c1-c1ccccc1", "TESTED TARGET": "XF498", "GROUP": "NO"}

Q) // param item: `COc1ccc(/C(=C/n2ccnc2)C(=O)c2ccc(OC)c(OC)c2)cc1` ; yields the recorded call
A) NO

Q) // query: `Cc1c(Cl)cccc1NC(=O)C(=O)c1c(O)c2ccc(O)cc2oc1=O`
A) NO

Q) // query: `O=C1CSc2sc(=S)sc2S1`
A) NO
